Test system: MDA-MB-435
Experimental Protocol: NCI tumour cell line growth inhibition, 48 h
Calls of active or inactive are those of the source. Rule as the data show it: active = GI50 up to about 1.1 µM and inactive = higher. *1 amine or outer side, *2 acyl side, *3 side chain or, on linkers, in order; H or OH if unused. Where a SMILES comes first, the peptide text is derived from it. Bridges are numbered along the chain shown (N, C = ends). [ ]: non-standard residue; d: D form. ξ: configuration not given here. X10 = CCC(C)C(N[*:1])C(O)CC(=O)O[C@H](C(=O)C(C)C(=O)[*:2])C(C)C; NMeY = CN[C@@H](Cc1ccc(O)cc1)C(=O)O; ξNMeL = CNC(CC(C)C)C(=O)O; ξT = CC(O)C(N)C(=O)O
One label from this list, please: active, inactive

Illustrative cases are given below, each with its answer.
1) Nc1c(C(=O)c2ccc(Cl)cc2)[nH]c(NCc2ccccc2)c1C(=S)Nc1ccccc1 ... inactive
2) c1ccc2c(c1)sc1c3cnccc3ccc21 ... inactive
3) N#CCC1C2CC3C(C2=O)C13 (centres undefined) ... inactive

# ---- query compound ----
# lookup: test call for CCC(C)C1NC(=O)C(NC(=O)C(CC(C)C)N(C)C(=O)[C@@H]2CCCN2)C(C)OC(=O)[C@H](Cc2ccc(OC)cc2)N(C)C(=O)[C@@H]2CCCN2C(=O)[C@H](CC(C)C)NC(=O)C(C)C(=O)[C@H](C(C)C)OC(=O)CC1O (some centres undefined) (H-P[ξNMeL][ξT][X10]LP[NMeY](Me); ester 3-C)
active

----------
Listed molecules paired with reported GI50
System: CAKI-1
Experimental Protocol: NCI tumour cell line growth inhibition, 48 h
Active and inactive are the calls of the source. Cut-off read from the data, not from the text of the source: active = GI50 up to about 1.1 µM and inactive = higher.

Examples with their reported GI50 follow.
1. COc1ccc(C2=C(Cl)c3cc(OC)c(OC)cc3C2OC)cc1OC (configuration not stated) ... > 100 µM (inactive)
2. O=C(/C(=C\c1ccccc1)CN1CCOCC1)c1ccc(Br)cc1 ... 1.88 µM (inactive)
3. COc1cc2c(oc(=O)c3c4occc4cc(OC)c23)c2cccc(OCc3ccccc3)c12 ... > 100 µM (inactive)
4. O=c1nc2occc2cn1C1CC(O)C(CO)O1 (configuration not stated) ... > 100 µM (inactive)
5. C=C(CN(C)C)C(=O)c1cc(C)ccc1C ... 4.39 µM (inactive)
6. C=CCOc1ccc(C(=N/NC(=O)c2ccccc2)/N=N/c2ccccc2)cc1OC ... > 100 µM (inactive)

Continue with the molecule presented below.
# assay system CAKI-1: give GI50 of CCOC(=O)C(=O)Nc1c(C)cccc1C(C)C
> 100 µM (inactive)

----------
System: NCI-H522
Experimental Protocol: NCI tumour cell line growth inhibition, 48 h
Activity calls are given as the source filed them. No stated cut-off is given here; in the data, active = GI50 up to about 1.1 µM and inactive = higher.
One label from this list, please: Yes for active, No for inactive

Illustrative cases are given below, each with its answer.
1) Cc1ccsc1C(=S)Nc1ccc(Cl)c(/C=N/OC(C)C)c1 ... No
2) C=CCN(N=O)C(=O)NCCCCC(NC(C)=O)C(=O)NCc1ccccc1 (stereo not given) ... No
3) CCOC(=O)c1c(N=P(c2ccccc2)(c2ccccc2)c2ccccc2)nnc(-c2ccccc2)c1-c1ccccc1 ... No

# lookup: test call for O=c1[nH]nc(-c2ccccc2)c2[nH]c3c(c12)Cc1ccccc1-3
Yes

# lookup: test call for Cc1cc(C2(c3cc(C)c(O)c(C(=O)O)c3)OS(=O)(=O)c3ccccc32)cc(C(=O)O)c1O
No

These data points were gathered from ChEMBL document CHEMBL1201862.
